target.system: Rac GTPase-activating protein 1 (Homo sapiens) (UniProt Q9H0H5)
Sequence (Q9H0H5 whole entry, looked up): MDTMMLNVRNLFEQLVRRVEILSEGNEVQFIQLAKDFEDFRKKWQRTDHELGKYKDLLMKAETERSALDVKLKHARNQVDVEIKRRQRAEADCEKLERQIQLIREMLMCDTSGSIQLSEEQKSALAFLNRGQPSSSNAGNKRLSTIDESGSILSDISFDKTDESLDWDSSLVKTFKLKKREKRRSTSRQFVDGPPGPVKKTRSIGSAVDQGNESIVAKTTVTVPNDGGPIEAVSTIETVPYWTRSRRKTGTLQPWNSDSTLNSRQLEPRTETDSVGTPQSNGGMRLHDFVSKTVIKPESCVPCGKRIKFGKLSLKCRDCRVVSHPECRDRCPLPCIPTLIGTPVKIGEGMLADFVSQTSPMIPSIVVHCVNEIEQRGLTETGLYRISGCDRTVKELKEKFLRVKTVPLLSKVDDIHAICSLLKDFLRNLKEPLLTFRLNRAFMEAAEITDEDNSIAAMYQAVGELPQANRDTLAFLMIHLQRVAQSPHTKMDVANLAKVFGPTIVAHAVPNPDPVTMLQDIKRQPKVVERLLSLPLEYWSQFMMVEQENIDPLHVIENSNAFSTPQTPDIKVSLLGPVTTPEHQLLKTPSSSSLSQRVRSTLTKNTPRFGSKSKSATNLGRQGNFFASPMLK
run.description: blockers of MgcRacGAP-driven Rac1 GTP hydrolysis – biochemical, ADP Hunter fluorescence, primary and confirmatory, confirmation (AID 624330);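 also: fluorescence reports GDP produced by GAP-driven GTP hydrolysis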
test.conditions: MgcRacGAP-stimulated Rac1 GTP hydrolysis, at 30 µM, hits give high values, GST-tagged Rac1 F28L mutant substrate
In all, about 340,000 compounds went through this assay and about 2,100 (0.62%) were called active. Only a sample is shown. Entries with a potency or affinity are not part of this list.
The compounds listed here are annotated with their inhibition.
parameter: inhibition (%)

compound="O=C(Nc1nnc(-c2ccncc2)s1)C1CCCO1 (stereo unspecified)" obs_value=2.37
compound=C[C@@H]1CN([C@@H](C)CO)C(=O)c2cc(Br)cnc2O[C@@H]1CN(C)C(=O)Nc1ccc(F)cc1 obs_value=9.67
compound=O=C(Nc1cccc(-c2ccc(N3CCOCC3)nn2)c1)c1ccc(Cl)cc1 obs_value=3.67
compound=CCOC(=O)N1CCN(C(=O)c2ccc3c(=O)n(CCc4ccccc4)c(=S)[nH]c3c2)CC1 obs_value=5.18
compound=CCOC(=O)Nc1cc(NC(=O)OCC)c(C)nc1C obs_value=9.52
compound=CCOC(=O)C1CCN(C(=O)c2cc(S(=O)(=O)N3CCCCC3)ccc2C)CC1 obs_value=-9.49
compound=COc1ccc(S(=O)(=O)N2CCN(C(=O)CCSc3ccccc3)CC2)cc1 obs_value=7.76
compound="NC1=NC(c2ccccc2)CC(=O)N1 (stereo unspecified)" obs_value=0.78
compound=CCCOc1c(Br)cc(C(=O)NCC)cc1OC obs_value=13
compound=CC(=O)c1ccc(S(=O)(=O)NCCC(=O)NCCc2c[nH]c3ccccc23)cc1 obs_value=3.35
compound=Cc1cc(C)n(C(=O)c2c([N+](=O)[O-])cnn2C)n1 obs_value=-7.87

Taken from PubChem BioAssay AID624330.
